Attribution: patent US20210163540

# target_under_test: T1, OTR302 (Artificial, UniProt Q9XDM8 SEQ:1-184)
# T1 chain: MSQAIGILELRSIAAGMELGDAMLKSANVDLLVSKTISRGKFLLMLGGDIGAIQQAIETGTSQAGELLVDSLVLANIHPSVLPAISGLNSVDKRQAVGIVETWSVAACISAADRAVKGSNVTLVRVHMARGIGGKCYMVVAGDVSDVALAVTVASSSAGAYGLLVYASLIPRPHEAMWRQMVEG
# experiment_notes: fluorescence quenching kinetics koff/kon, PBS, room temp
# experimental_context: tags: C-terminal His tag; chain copies: 24 (inferred); label: Atto488 5'
quantity_measured: Kd
Output should be the measured figure followed by the unit it is expressed in.

Tell me the measured Kd of TTAATTAAAGACTTCAAGCGG (ssDNA) [Atto488-ssDNA (A488-DNA)] , please. 8.59 nM
